Source: paper PMC10397247

- System under test: T1, P6-AA-12HAA-L
- T1 chain: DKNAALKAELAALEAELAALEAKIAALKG
- Assay explanation: two-hybrid library CCmax;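 note: natural log of median RNA to DNA barcode read ratio; higher means stronger binding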
- Measurement conditions: mean of both orientations
Each entry falls into one class according to its interaction score; the ranges are bottom bin: < 1; middle bin: ≥ 1 and < 2; top bin: ≥ 2

A selection of reference data follows.
{"Binder": "DENAALEAKHAALKAKHAALKAEIAALEG [P5-AA-12HAA-H]", "Cat": "middle bin"}
{"Binder": "DENAALEAKDAALKAKDAALKAEIAALEG [P5-AA-12HAA-D]", "Cat": "bottom bin"}

q: Entry DENAALEAKVAALKAKVAALKAEIAALEG [P5-AA-12HAA-V] belongs to which category?
a: top bin

q: Sort DENAALEAKTAALKAKTAALKAEIAALEG [P5-AA-12HAA-T] into one of the categories.
a: middle bin
